# experimental system: AuroraB (Homo sapiens, UniProt Q96GD4)
# Construct: 20 μL of AuroraB FL H is for a final volume of 41 μL; His
# Sequence (Q96GD4 whole entry): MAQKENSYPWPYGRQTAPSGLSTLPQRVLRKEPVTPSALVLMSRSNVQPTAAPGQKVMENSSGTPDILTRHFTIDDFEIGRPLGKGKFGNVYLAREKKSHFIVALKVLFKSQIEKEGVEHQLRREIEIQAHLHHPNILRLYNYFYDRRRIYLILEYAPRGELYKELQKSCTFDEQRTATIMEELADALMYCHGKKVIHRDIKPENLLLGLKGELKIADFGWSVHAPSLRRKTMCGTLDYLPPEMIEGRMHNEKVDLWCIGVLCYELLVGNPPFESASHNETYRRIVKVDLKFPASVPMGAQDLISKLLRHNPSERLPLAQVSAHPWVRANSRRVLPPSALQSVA
# procedure details: AuroraB Homogeneous Time Resolved Fluorescent (HTRF) kinase assay
# Type: biochemical
# condition notes: average; read-out: AurB_IC50_IP (uM Avg)
Quick reference for IC50 among some molecules
Unit µM implied. Number only.

| smiles record | observed |
| --- | --- |
| COc1cc2nccc(Sc3ccc(Nc4nnc(-c5ccccc5)c5ccccc45)cc3)c2cn1 | 0.008 |
| c1cnc2c(Sc3ccc(Nc4nnc(-c5ccc6c(c5)OCO6)c5ccccc45)cc3)ccnc2c1 | 0.002 |

Please report IC50 for the following molecule: `COc1cnc2c(Oc3ccc(Nc4nnc(-c5ncc(C)s5)c5ccccc45)cc3)ccnc2c1`
0.009

Please report IC50 for the following molecule: `COc1cnc2c(Sc3ccc(Nc4nnc(N5CCN6CCCC[C@H]6C5)c5ccccc45)cc3)ccnc2c1`
0.006

* * *

# experimental system: AuroraB (Homo sapiens, UniProt Q96GD4)
# Construct: 20 μL of AuroraB FL H is for a final volume of 41 μL; His
# procedure details: AuroraB Homogeneous Time Resolved Fluorescent (HTRF) kinase assay
# Assay type: biochemical
# condition notes: average; read-out: AurB_IC50_IP (uM Avg)
The label 1 (yes) is reserved for IC50 strictly under 0.02 µM; 0 (no) covers values equal to or above it.

A selection of reference data follows.
| compound | experimental system | assigned label |
| --- | --- | --- |
| COc1cnc2c(Sc3ccc(Nc4nnc(-c5ccc(C)c(OC)c5)c5ccccc45)cc3)ccnc2c1 [compound 529] | AuroraB (Homo sapiens, UniProt Q96GD4) | 0 (no) |
| COc1cc(F)cc2nccc(Oc3ccc(Nc4nnc(-c5ccc(Cl)cc5)c5ccccc45)cc3)c12 [compound 437] | AuroraB (Homo sapiens, UniProt Q96GD4) | 0 (no) |
| COc1cc2nncc(Oc3ccc(Nc4nnc(-c5ccccc5)c5ccccc45)cc3)c2cc1OC [compound 254] | AuroraB (Homo sapiens, UniProt Q96GD4) | 0 (no) |
| CCN(CC)C(=O)c1cc2nccc(Oc3ccc(Nc4nnc(-c5ccc(Cl)cc5)c5ccccc45)cc3)c2s1 [compound 270] | AuroraB (Homo sapiens, UniProt Q96GD4) | 1 (yes) |
| COc1cnc2c(Oc3cnc(Nc4nnc(-c5ccccc5)c5ccccc45)nc3)ccnc2c1 [compound 84] | AuroraB (Homo sapiens, UniProt Q96GD4) | 1 (yes) |

Lab log: compare recorded IC50 with 0.02 µM; is it strictly lower for COc1ccc2c(Oc3ccc(Nc4nnc(-c5ccccc5)c5c4CCC5)cc3)ccnc2c1 [compound 368] ?
0 (no)

Lab log: compare recorded IC50 with 0.02 µM; is it strictly lower for COc1ccc2nccc(Sc3ccc(Nc4nnc(-c5ccc(Cl)cc5)c5ccccc45)cc3)c2n1 [compound 348] ?
0 (no)

Lab log: compare recorded IC50 with 0.02 µM; is it strictly lower for COc1cnc2c(Sc3ccc(Nc4nnc(-c5ccc(OC)nc5)c5ccccc45)cc3)ccnc2c1 [compound 583] ?
1 (yes)

Lab log: compare recorded IC50 with 0.02 µM; is it strictly lower for COCc1cc(-c2ccccc2)nnc1Nc1ccc(Oc2ccnc3cc(OC)cnc23)cc1 [compound 593] ?
0 (no)

Lab log: compare recorded IC50 with 0.02 µM; is it strictly lower for Clc1ccc(-c2nnc(Nc3ccc(Sc4ccnc5ccncc45)cc3)c3ccccc23)cc1 [compound 426] ?
1 (yes)

Lab log: compare recorded IC50 with 0.02 µM; is it strictly lower for COc1cc2nccc(Oc3ccc(Nc4nnc(-c5cccc(C)n5)c5ccccc45)cn3)c2cn1 [compound 127] ?
1 (yes)
